system: BT-549 breast; test: NCI tumour cell line growth inhibition, 48 h; in the data active means GI50 below about 0.43 µM; inactive means the rest
Please state which outcome applies, choosing from class 1 (active), class 0 (inactive)

# count of solved cases: 8
C[C@H]1CCC/C=C/[C@@H]2C[C@H](O)C[C@H]2[C@H](O)C(O)C(O)C(=O)O1 (some centres undefined)
class 0
CC(C)C[C@H](NC(=O)[C@@H](N)Cc1cccc2ccccc12)B(O)O
class 0
Cc1nc2ccccc2c(/C=C/c2ccc(F)cc2)c1C(=O)/C=C/c1ccccc1
class 0
COc1cc2c(cc1OCCCN1CCN(CCCOc3cc4c(cc3OC)C(=O)N3C[C@H](F)C[C@H]3C=N4)CC1)N=C[C@@H]1C[C@@H](F)CN1C2=O
class 1
CCn1cnc(C[C@H](NC(=O)[C@@H](NC(=O)Nc2cc(C(F)(F)F)cc(C(F)(F)F)c2)C(C)(C)C)C(=O)OC)c1
class 0
CCc1n(Cc2ccc3ccccc3c2)cc[n+]1Cc1ccc2ccccc2c1
class 0
C(#Cc1ccccc1C#Cc1cnccn1)c1cnccn1
class 0
Nc1ncnc2c1ncn2C1OC(F)(COS(N)(=O)=O)C(O)C1O (centres undefined)
class 0

For this molecule, state the assay outcome: C=CCC(NCc1ccccc1)c1cn(C(=O)OCC)c2ccccc12 (centres undefined)
class 0

src = PubChem BioAssay (NCI)
